# target-under-test: DLG5_1, Q8TDM6
# Sequence (Q8TDM6 617-713): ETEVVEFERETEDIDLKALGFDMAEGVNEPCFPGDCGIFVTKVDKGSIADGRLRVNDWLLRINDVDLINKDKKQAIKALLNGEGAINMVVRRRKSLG
# protocol-details: holdup assay
# Parameters: key: below the threshold = too weak to quantify, mostly under pKd 3.1 to 4
# experimental-setup: plain residues with an end cap or a label only (N-terminal biotin on a linker: ado-ado)
assay-metric: pKd

Solved entries (count: 4):
- binder: "PLATCDETSI [SEMA4F, O95754]"
  pKd: "below the threshold"
- binder: "PEKVSNTTVV [IGSF5, Q9NSI5]"
  pKd: "below the threshold"
- binder: "ATKDKKITTV [EXOC4, Q96A65]"
  pKd: 3.59
- binder: "GNDPDRGTSI [GRID2, O43424]"
  pKd: "below the threshold"

[in] # get_value(readout='pKd', item= LLQEEWETVM [PTH1R, Q03431] )
[out] below the threshold
